# Test system: MCF7 cells
# protocol_notes: Transfection of MCF7 cell line, DNA vectors
# Format: cell-based
# Design: concentration or dose not given beside the values
# run_conditions: plasmid DNA, GFP cells / total cells
Output criterion met for Absolute DNA transfection efficiency in MCF7 cells not less than 20%; output criterion not met otherwise.

Example entries begin here.
>>> df
                                   molecule     category_label
0  CCCCCCCCCCCCCCSc1nc(NCC2CCN(C)CC2)nc(SCCCCCCCCC)n1 [Compound S9S14D10]      criterion met
1  CCCCCCCCCCCCSc1nc(NCCCN2CCOCC2)nc(SCCCCCCCCC)n1 [Compound S9S12D8]  criterion not met
2  CCCCCCCCCCCSc1nc(NCCCN(C)C)nc(SCCCCCCCC)n1 [Compound S8S11D6]      criterion met
3  CCCCCCCCCCCCSc1nc(NCC2CCN(C)CC2)nc(SCCCCCCC)n1 [Compound S7S12D10]      criterion met

Inquiry: Determine whether this molecule has Absolute DNA transfection efficiency in MCF7 cells no lower than 20%: CCCCCCCCCCCSc1nc(NCCCCCCCCC)nc(NCC2CCN(C)CC2)n1 [Compound S11N9D10]
Reply text: criterion met
